test_parameters: in isopropyl acetate, 293.15 K
measured_parameter: solubility (mole fraction)
A bare number is all that is needed in reply.

Query: What solubility (mole fraction) value was documented for this compound, `Nc1nc2ccc(OC(F)(F)F)cc2s1` ?
Result: 0.361

---

test_parameters: in ethanol, 318.15 K
measured_parameter: solubility (mole fraction)
Answer with the value's number alone.

Query: GET /values?readout=solubility (mole fraction)&item= `Nc1nc2ccc(OC(F)(F)F)cc2s1`
Result: 0.294

---

test_parameters: in n-propanol, 318.15 K
measured_parameter: solubility (mole fraction)
Answer with a bare number; do not write a unit.

Query: Fill blank: measured solubility (mole fraction) of the compound `Nc1nc2ccc(OC(F)(F)F)cc2s1` is ____.
Result: 0.312
